Where a name gives a salt, the structure may show the parent alone.
readout_name: melting point (°C)

A. CCCc1ccc(O)c(C(OC2CCN(C)CC2)c2nc3ccccc3[nH]2)c1 (stereo not shown) [Example 591]
B. CN1CCC(OC(c2cccc(OCCCCN3CCOCC3)c2)c2nc3ccccc3s2)CC1 (stereo not shown) (as salt: oxalate) [Example 322]
Ask | Which shows the larger melting point value: A or B ? Reply with the label of the item you choose.
Reply | A
(A: 120 °C, B: 61 °C)

A. CN1CCC(OC(c2cccc(OCCN3CCN(C(=O)OC(C)(C)C)CC3)c2)c2nc3ccccc3s2)CC1 (stereo not shown) (as salt: oxalate) [Example 329]
B. CN1CCC(OC(c2cccc(OCCNCC(=O)OC(C)(C)C)c2)c2nc3ccccc3s2)CC1 (stereo not shown) (as salt: oxalate) [Example 370]
Ask | Which has the smaller recorded melting point, A or B ? Reply with the label of the item you choose.
Reply | A

====

- system_tested: human H4 receptor (Homo sapiens, UniProt Q9H3N8)
- Construct: expressed in transfected cells
- experimental_protocol: [3H]Histamine binding on membranes of CHO cells stably expressing human H4 receptor
Measured Ki or IC50 activity class by item

Please review the entries below; each comes with its answer.
Ask | Provide measured Ki or IC50 activity class on human H4 receptor (Homo sapiens, UniProt Q9H3N8) for CN1CCC(OC(c2cccc(N3CC(N(C)C)C3)c2)c2nc3ccccc3s2)CC1 (centres unmarked) please.
Reply | < 1000 nM

Ask | Provide measured Ki or IC50 activity class on human H4 receptor (Homo sapiens, UniProt Q9H3N8) for CC(=O)COCc1cccc(C(OC2CCN(C)CC2)c2nc3ccccc3s2)c1 (centres unmarked) please.
Reply | < 1000 nM

Ask | Provide measured Ki or IC50 activity class on human H4 receptor (Homo sapiens, UniProt Q9H3N8) for CN1CCC(OC(c2cccc(N3CC4CN(C)CC4C3)c2)c2nc3ccccc3s2)CC1 (centres unmarked) please.
Reply | < 1000 nM

Ask | Provide measured Ki or IC50 activity class on human H4 receptor (Homo sapiens, UniProt Q9H3N8) for CN1CCC(OC(c2ccc(Br)cc2)c2nc3ccccc3[nH]2)CC1 (centres unmarked) please.
Reply | < 300 nM

Ask | Provide measured Ki or IC50 activity class on human H4 receptor (Homo sapiens, UniProt Q9H3N8) for CC(C)COc1cccc(C(NC2CCN(C)CC2)c2nc3ccccc3[nH]2)c1 (centres unmarked) please.
Reply | < 30 nM

Ask | Provide measured Ki or IC50 activity class on human H4 receptor (Homo sapiens, UniProt Q9H3N8) for CN1CCC(OC(c2cccc(OCC3CCCN(C)C3)c2)c2nc3ccccc3s2)CC1 (centres unmarked) please.
Reply | < 1000 nM

Ask | Provide measured Ki or IC50 activity class on human H4 receptor (Homo sapiens, UniProt Q9H3N8) for CN1CCC(OC(c2nc3ccccc3[nH]2)c2cccc(F)c2O)CC1 (centres unmarked) please.
Reply | < 30 nM

Ask | Provide measured Ki or IC50 activity class on human H4 receptor (Homo sapiens, UniProt Q9H3N8) for COc1ccc(-c2cccc(C(OC3CCN(C)CC3)c3nc4ccccc4s3)c2)cc1 (centres unmarked) please.
Reply | < 300 nM

Ask | Provide measured Ki or IC50 activity class on human H4 receptor (Homo sapiens, UniProt Q9H3N8) for CN1CCC(OC(c2cccc(C#CCNC(=N)N)c2)c2nc3ccccc3[nH]2)CC1 (centres unmarked) please.
Reply | < 30 nM

Ask | Provide measured Ki or IC50 activity class on human H4 receptor (Homo sapiens, UniProt Q9H3N8) for CN1CCC(NC(c2cccc(OC3CCCCO3)c2)c2nc3ccccc3[nH]2)CC1 (centres unmarked) please.
Reply | < 1000 nM

***
Ask | Provide measured Ki or IC50 activity class on human H4 receptor (Homo sapiens, UniProt Q9H3N8) for CN1CCC(OC(c2nc3ccccc3[nH]2)c2cc(OC(F)(F)F)ccc2F)CC1 (single isomer, unassigned) [Example 435] please.
Reply | < 30 nM
